pIC50: recorded values
assaySystem: HLA-B08.01 (Homo sapiens, UniProt P01889, A93T/A95T/D138N/E176V/E187T/K202T/Q94N/R180D/S35A/V36M/Y33D/Y91F)
methodNotes: Class I MHC peptide binding affinity (displacement of radiolabeled reference peptide)
Where a SMILES comes first, the peptide text is derived from it.
// pIC50 here means minus log10 of the molar concentration (mol/L)

IN: What value of pIC50 has been reported for the following compound? CC(C)C[C@H](NC(=O)[C@@H]1CCCN1C(=O)[C@H](CO)NC(=O)[C@H](CCCNC(=N)N)NC(=O)[C@H](CC(C)C)NC(=O)[C@H](CCCCN)NC(=O)[C@H](CCCCN)NC(=O)[C@@H](N)CC(C)C)C(=O)O (H-LKKLRSPL-OH; N-terminus and C-terminus assumed)
OUT: 9.22

====

assaySystem: HLA-B07.02 (Homo sapiens)
methodNotes: Class I MHC peptide binding affinity (displacement of radiolabeled reference peptide)
reportedConditions: Allele B07.02; read-out: Observed Affinity (IC50; (nM))
Where a SMILES comes first, the peptide text is derived from it.
IC50: recorded values
Answer format: numeric, nM implied, no suffix.

{"columns": ["molecule", "metric", "reportedMeasurement"],
 "data": [
  ["CC(C)C[C@H](NC(=O)[C@H](CC(C)C)NC(=O)[C@H](Cc1c[nH]cn1)NC(=O)CNC(=O)[C@H](CCC(N)=O)NC(=O)[C@H](CC(N)=O)NC(=O)[C@H](CCC(N)=O)NC(=O)[C@@H](NC(=O)[C@@H](N)CCCNC(=N)N)C(C)C)C(=O)O (H-RVQNQGHLL-OH; N-terminus and C-terminus assumed)", "IC50", 826],
  ["CC(C)C[C@H](NC(=O)[C@H](CCC(N)=O)NC(=O)[C@H](CC(C)C)NC(=O)[C@H](Cc1c[nH]cn1)NC(=O)[C@H](CC(N)=O)NC(=O)[C@H](CCC(N)=O)NC(=O)[C@H](CCCNC(=N)N)NC(=O)[C@H](CO)NC(=O)[C@@H](N)CCCCN)C(=O)O (H-KSRQNHLQL-OH; N-terminus and C-terminus assumed)", "IC50", 78]
]}

IN: What value of IC50 has been reported for the following molecule? CC(C)C[C@H](NC(=O)CNC(=O)[C@H](CO)NC(=O)[C@H](CC(=O)O)NC(=O)[C@H](CCCCN)NC(=O)[C@H](CO)NC(=O)[C@H](Cc1ccc(O)cc1)NC(=O)[C@H](C)NC(=O)[C@@H]1CCCN1C(=O)[C@@H](N)Cc1ccc(O)cc1)C(=O)O (H-YPAYSKDSGL-OH; N-terminus and C-terminus assumed)
OUT: 79.5

IN: What value of IC50 has been reported for the following molecule? CC[C@H](C)[C@H](NC(=O)[C@H](CCCCN)NC(=O)[C@H](C)NC(=O)[C@@H](NC(=O)[C@@H](N)CCCNC(=N)N)C(C)C)C(=O)N[C@@H](C)C(=O)N[C@@H](CC(=O)O)C(=O)N[C@@H](Cc1ccccc1)C(=O)NCC(=O)N[C@@H](CCSC)C(=O)O (H-RVAKIADFGM-OH; N-terminus and C-terminus assumed)
OUT: 9720

IN: What value of IC50 has been reported for the following molecule? CC(C)[C@H](NC(=O)[C@H](CO)NC(=O)[C@@H](NC(=O)[C@@H](NC(=O)[C@H](C)NC(=O)[C@H](C)NC(=O)[C@H](CCCNC(=N)N)NC(=O)[C@@H](NC(=O)[C@@H]1CCCN1C(=O)[C@@H](N)CCCCN)[C@@H](C)O)[C@@H](C)O)C(C)C)C(=O)O (H-KPTRAATVSV-OH; N-terminus and C-terminus assumed)
OUT: 8

IN: What value of IC50 has been reported for the following molecule? CSCC[C@H](NC(=O)[C@H](CCC(=O)O)NC(=O)[C@H](CC(C)C)NC(=O)[C@H](CC(C)C)NC(=O)[C@H](CC(C)C)NC(=O)CNC(=O)[C@H](Cc1ccc(O)cc1)NC(=O)[C@H](CC(C)C)NC(=O)[C@@H]1CCCN1C(=O)[C@@H](N)C(C)C)C(=O)O (H-VPLYGLLLEM-OH; N-terminus and C-terminus assumed)
OUT: 27.9

IN: What value of IC50 has been reported for the following molecule? CC(C)C[C@H](NC(=O)[C@@H]1CCCN1C(=O)[C@@H](N)CCCNC(=N)N)C(=O)N[C@@H](CCC(N)=O)C(=O)N[C@H](C(=O)N[C@@H](Cc1c[nH]cn1)C(=O)N[C@H](C(=O)N[C@@H](CC(C)C)C(=O)N1CCC[C@H]1C(=O)N[C@@H](CCC(=O)O)C(=O)O)C(C)C)[C@@H](C)O (H-RPLQTHVLPE-OH; N-terminus and C-terminus assumed)
OUT: 2530

====

IC50: recorded values
assaySystem: HLA-A02.01 (Homo sapiens, UniProt P04439, D140Y/D185E/D98H/E176V/E277Q/G131W/G231S/I119V/I121R/I166T/I218V/L300P/L318F/N151K/N90K/P208A/P217A/Q86G/Q94H/R138H/R169H/T345S)
methodNotes: Class I MHC peptide binding affinity (displacement of radiolabeled reference peptide)
reportedConditions: allele A02.01; read-out: Observed Affinity (IC50; (nM))
Where a SMILES comes first, the peptide text is derived from it.
Answer format: numeric, nM implied, no suffix.

{"columns": ["compound", "reportedMeasurement"],
 "data": [
  ["CC(C)[C@H](NC(=O)[C@H](CO)NC(=O)[C@H](Cc1ccccc1)NC(=O)[C@H](Cc1ccccc1)NC(=O)[C@H](Cc1ccccc1)NC(=O)[C@H](Cc1ccccc1)NC(=O)[C@H](CS)NC(=O)[C@@H](NC(=O)[C@@H](N)CO)C(C)C)C(=O)O", 175]
]}

Here is another compound to look at.
IN: What value of IC50 has been reported for the following compound? CSCC[C@H](NC(=O)[C@H](C)NC(=O)[C@H](CO)NC(=O)[C@H](CCSC)NC(=O)[C@H](CC(C)C)NC(=O)[C@H](C)N)C(=O)N[C@H](C(=O)N[C@H](C(=O)N[C@@H](CO)C(=O)O)[C@@H](C)O)[C@@H](C)O (H-ALMSAMTTS-OH; N-terminus and C-terminus assumed)
OUT: 139

====

assaySystem: HLA-A02.01 (Homo sapiens, UniProt P04439, D140Y/D185E/D98H/E176V/E277Q/G131W/G231S/I119V/I121R/I166T/I218V/L300P/L318F/N151K/N90K/P208A/P217A/Q86G/Q94H/R138H/R169H/T345S)
methodNotes: Class I MHC peptide binding affinity (displacement of radiolabeled reference peptide)
reportedConditions: allele A02.01; read-out: Observed Affinity (IC50; (nM))
Where a SMILES comes first, the peptide text is derived from it.
IC50: recorded values
Answer format: numeric, nM implied, no suffix.

{"columns": ["molecule", "IC50 (nM)"],
 "data": [
  ["CC(C)C[C@H](NC(=O)[C@H](C)N)C(=O)N[C@@H](CCC(N)=O)C(=O)N1CCC[C@H]1C(=O)N[C@@H](CC(C)C)C(=O)N[C@@H](CCC(N)=O)C(=O)N1CCC[C@H]1C(=O)N[C@@H](Cc1c[nH]cn1)C(=O)N[C@@H](C)C(=O)O (H-ALQPLQPHA-OH; N-terminus and C-terminus assumed)", 604],
  ["CC[C@H](C)[C@H](NC(=O)[C@@H](NC(=O)[C@@H](N)CC(C)C)[C@@H](C)O)C(=O)N[C@@H](CC(N)=O)C(=O)N[C@@H](CCCCN)C(=O)N[C@@H](CCC(=O)O)C(=O)N[C@@H](CCC(=O)O)C(=O)N[C@@H](C)C(=O)N[C@@H](CC(C)C)C(=O)O", 4410],
  ["CC(C)C[C@H](NC(=O)[C@H](CO)NC(=O)[C@@H](NC(=O)[C@@H](NC(=O)[C@H](CO)NC(=O)[C@H](CO)NC(=O)[C@H](Cc1c[nH]c2ccccc12)NC(=O)[C@H](CCC(N)=O)NC(=O)[C@@H](N)CCCCN)C(C)C)[C@@H](C)O)C(=O)O (H-KQWSSVTSL-OH; N-terminus and C-terminus assumed)", 26.5]
]}

Here is another molecule to look at.
IN: What value of IC50 has been reported for the following molecule? CC(C)C[C@H](NC(=O)[C@H](CC(C)C)NC(=O)[C@H](CC(C)C)NC(=O)CNC(=O)[C@H](Cc1ccc(O)cc1)NC(=O)[C@H](CC(C)C)NC(=O)[C@@H]1CCCN1C(=O)[C@@H](NC(=O)[C@@H](N)C(C)C)C(C)C)C(=O)O
OUT: 1040

====

IC50: recorded values
assaySystem: HLA-A02.01 (Homo sapiens, UniProt P04439, D140Y/D185E/D98H/E176V/E277Q/G131W/G231S/I119V/I121R/I166T/I218V/L300P/L318F/N151K/N90K/P208A/P217A/Q86G/Q94H/R138H/R169H/T345S)
methodNotes: Class I MHC peptide binding affinity (displacement of radiolabeled reference peptide)
reportedConditions: allele A02.01; read-out: Observed Affinity (IC50; (nM))
Where a SMILES comes first, the peptide text is derived from it.
Answer format: numeric, nM implied, no suffix.

The cases that follow already have their IC50 on record.
{"columns": ["compound", "unitAnnotation", "IC50"],
 "data": [
  ["CC[C@H](C)[C@H](N)C(=O)N[C@@H](C)C(=O)N[C@@H](CC(N)=O)C(=O)N[C@@H](CC(C)C)C(=O)N[C@@H](CC(C)C)C(=O)NCC(=O)N[C@@H](C)C(=O)N[C@@H](CS)C(=O)N[C@H](C(=O)N[C@H](C(=O)O)[C@@H](C)CC)[C@@H](C)O (H-IANLLGACTI-OH; N-terminus and C-terminus assumed)", "nM", 6420],
  ["CSCC[C@H](NC(=O)[C@H](Cc1c[nH]cn1)NC(=O)[C@@H](NC(=O)[C@H](CC(C)C)NC(=O)[C@@H](NC(=O)[C@@H]1CCCN1C(=O)[C@H](C)NC(=O)[C@H](CC(C)C)NC(=O)[C@H](C)N)[C@@H](C)O)[C@@H](C)O)C(=O)N[C@@H](CC(C)C)C(=O)O (H-ALAPTLTHML-OH; N-terminus and C-terminus assumed)", "nM", 39]
]}

IN: What value of IC50 has been reported for the following compound? CC(C)C[C@H](NC(=O)CNC(=O)[C@H](Cc1c[nH]c2ccccc12)NC(=O)[C@H](CC(=O)O)NC(=O)[C@H](CCCCN)NC(=O)CNC(=O)[C@H](CCC(N)=O)NC(=O)[C@@H](NC(=O)[C@@H](N)Cc1ccccc1)C(C)C)C(=O)O
OUT: 34

Each recorded value in this set is attributed to patent US20220282217A1.
